- System: 186277-243-T-J2-PDC spheroids with HUVEC/MSC, viability;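 also: compound exposure lasted seven days before readout; 100% = DMSO vehicle control wells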
- test_summary: Anticancer human tumor 186277-243-T-J2-PDC patient-derived colon adenocarcinoma cell line growth inhibition [CLK]; active = viability on the fitted dose curve at most 10% of control; inactive = the rest
- conditions: second compound 3.16 µM; first compound 0.1 µM
Outcome codes: class 1 (active), class 0 (inactive)

compound	group_label
C#Cc1c(F)ccc2cc(O)cc(-c3ncc4c(N5CC6CCC(C5)N6)nc(OCC56CCCN5CC(F)C6)nc4c3F)c12 (stereo unspecified) + CN1CCN(c2cc(C(=O)Nc3cc4cc(-c5cnn(C)c5)ccc4cn3)ccn2)CC1	class 1
Nc1ccccc1NC(=O)c1ccc(CNC(=O)OCc2cccnc2)cc1 + CN1CCN(c2cc(C(=O)Nc3cc4cc(-c5cnn(C)c5)ccc4cn3)ccn2)CC1	class 1
Nc1ccccc1NC(=O)c1ccc(CNC(=O)OCc2cccnc2)cc1 + CNC(=O)c1ccc(Nc2nc(OC3CCCC3)c3c(-c4ccc5nc(C)oc5c4)c[nH]c3n2)c(OC)c1	class 0
C=CC(=O)N1CCN(c2nc(=O)n(-c3c(C)ccnc3C(C)C)c3nc(-c4c(O)cccc4F)c(F)cc23)C(C)C1 (stereo unspecified) + CN1CCN(c2cc(C(=O)Nc3cc4cc(-c5cnn(C)c5)ccc4cn3)ccn2)CC1	class 1
CCCS(=O)(=O)Nc1ccc(F)c(C(=O)c2c[nH]c3ncc(-c4ccc(Cl)cc4)cc23)c1F + CNC(=O)c1ccc(Nc2nc(OC3CCCC3)c3c(-c4ccc5nc(C)oc5c4)c[nH]c3n2)c(OC)c1	class 0
Nc1ccn(C2OC(CO)C(O)C2(F)F)c(=O)n1 (stereo unspecified) + CNC(=O)c1ccc(Nc2nc(OC3CCCC3)c3c(-c4ccc5nc(C)oc5c4)c[nH]c3n2)c(OC)c1	class 1
CC(CO)NC(=O)c1cc(-c2ccc(Cl)cc2)nn(-c2cnn(C)c2)c1=O (stereo unspecified) + CNC(=O)c1ccc(Nc2nc(OC3CCCC3)c3c(-c4ccc5nc(C)oc5c4)c[nH]c3n2)c(OC)c1	class 0
O=C(c1cc(Cc2n[nH]c(=O)c3ccccc23)ccc1F)N1CCN(C(=O)C2CC2)CC1 + CNC(=O)c1ccc(Nc2nc(OC3CCCC3)c3c(-c4ccc5nc(C)oc5c4)c[nH]c3n2)c(OC)c1	class 0
CC(CO)NC(=O)c1cc(-c2ccc(Cl)cc2)nn(-c2cnn(C)c2)c1=O (stereo unspecified) + CN1CCN(c2cc(C(=O)Nc3cc4cc(-c5cnn(C)c5)ccc4cn3)ccn2)CC1	class 1
CC1COCCN1c1cc(C2(S(C)(=N)=O)CC2)nc(-c2ccnc3[nH]ccc23)n1 (stereo unspecified) + CNC(=O)c1ccc(Nc2nc(OC3CCCC3)c3c(-c4ccc5nc(C)oc5c4)c[nH]c3n2)c(OC)c1	class 0
CC1(C)CCC(CN2CCN(c3ccc(C(=O)NS(=O)(=O)c4ccc(NCC5CCOCC5)c([N+](=O)[O-])c4)c(Oc4cnc5[nH]ccc5c4)c3)CC2)=C(c2ccc(Cl)cc2)C1 + CN1CCN(c2cc(C(=O)Nc3cc4cc(-c5cnn(C)c5)ccc4cn3)ccn2)CC1	class 1
